Field: melting point. Provide a value for each of the compounds that follow.

# compound, melting point
rows = [
    ("O=S(=O)(CCCN1CCN(c2ncc(F)cn2)CC1)c1ccc(F)cc1", "132 to 134 °C"),
    ("CCCNC(=O)CC1(C)Cc2c(C)c(N3CCN(c4ccc(OC)cc4)CC3)c(C)c(C)c2O1 (centres undefined)", "135 to 138 °C"),
    ("Cc1ccc(S(=O)(=O)CCCCCC(C)(C(=O)OC(C)(C)C)C(=O)OC(C)(C)C)cc1", "36.5 to 38.5 °C"),
    ("COC1(NC(=O)NS(=O)(=O)c2cccc(N=C=O)c2)C=C(C)N=CN1 (centres undefined)", "147 to 157 °C"),
    ("O=C(O)CCCC(=O)CCCc1ccccc1CCCC(=O)O", "87 °C"),
    ("COC1(O)C=C(O)C(C(O)C(=O)c2ccccc2)=CC1 (centres undefined)", "192 to 193 °C"),
    ("N=C(N)Nc1ncc(CSCCNC2=NS(=O)N=C2N)s1 (centres undefined)", "85 to 132 °C"),
    ("O=C1c2ccccc2-c2c1c1ccccc1c(=O)n2CCCCCCCCCCNS(=O)(=O)c1ccccc1", "128 to 130 °C"),
]

According to the records, this compound Cc1ccc(S(=O)(=O)N2[C@@H](CC#N)CC[C@H]2c2ccc(F)cc2)cc1 (racemic) displays melting point of 116 °C

---

property_measured: melting point

Here are 3 molecules together with their reported answers.
# molecule, melting point
measured = [
    ("CCCc1nn(-c2ccc(C(F)(F)F)cn2)cc1CCCOc1c(CC(=O)O)cccc1OCC", "133 to 134 °C"),
    ("CCc1ccc(C(=O)C2=C(O)C(=O)N(c3ccc(C)nn3)C2c2ccc(OC(F)(F)F)cc2)cc1 (stereo not drawn)", "263 to 267 °C"),
    ("CCOC(=O)c1c(CCCCc2nccn2C)nc2cc(OC)c(OC)cc2c1-c1ccc(OC)c(OC)c1", "180 to 183 °C"),
]

Hey, can you go through the list below and give me melting point for every item?
1. N#Cc1cc(C(=O)NNC(=O)c2occ(-c3ccccc3)c2-c2ccccc2)ccc1OC(=O)c1ccccc1
2. O=C(NC(=S)Nc1ccc(Cl)c(Cl)c1)c1c(Cl)cccc1Cl
3. O=C(NCc1ccc(Cl)cc1)c1cnc2c(F)cc(-c3cc(Br)cs3)cc2c1O
4. COc1cc(C(=O)CCCN2CCC(OC(=O)c3cc(Cl)c(N)c4c3OCC4)C(OC)C2)cc(OC)c1OC (stereo not drawn)
5. CS(=O)(=O)c1ccc(-c2cnn(CC(F)(F)F)c(=O)c2SC2CCCC2)cc1

Result:
["163 to 167 °C", "240 °C", "281 to 283 °C", "132 °C", "149 to 151 °C"]

---

property_measured: melting point

Here are 3 molecules together with their reported answers.
# molecule, melting point
data = [
    ("COC(=O)C1=C(SCc2ccc(OC)cc2)C2=C(CC=CC=C2)CC1", "79 to 81 °C"),
    ("Cc1cc2c(s1)Nc1ccccc1N=C2N1CCN(C)[C@@H](COCc2ccccc2)C1", "55 to 65 °C"),
    ("COc1ccccc1CN1N=C(c2ccc(OC)c(OC)c2)[C@@H]2CCCC[C@@H]2C1=O (relative stereo)", "96 to 99 °C"),
]

Hey, can you go through the list below and give me melting point for every item?
1. O=[N+]([O-])c1ccc(Oc2cc(Cl)ncn2)cc1
2. O=C(CN1CCN(c2cnccn2)CC1)N1CCC(CO)(c2cccc(C(F)(F)F)c2)CC1

Result:
1: 125 to 127 °C; 2: 223 °C

Hey, can you go through the list below and give me melting point for every item?
1. CCOC(=O)C(C)Oc1ccc(Oc2ccc3cc(Br)ccc3n2)cc1 (centres undefined)
2. COC(=O)[C@H](CC1=CCC(N)(O)C=C1)NC(=O)c1ccccc1 (some centres undefined)
3. Cn1c(CCN2CCN(c3ccccc3)CC2)nc2c3ccccc3ccc21

Result:
1: 85 °C; 2: 170 °C; 3: 153 to 155 °C

According to the records, this molecule CC(=O)NC[C@H]1CN(c2ccc(N3CCC(n4nnnc4N)CC3)c(F)c2)C(=O)O1 displays melting point of 174 to 176 °C

---

Field: melting point. Provide a value for each of the molecules that follow.

Here are 5 molecules together with their reported answers.
# molecule, property_measured, recorded_result
rows = [
    ("CCOC(=O)NC(C)c1ccc(O)c(C2CCCCC2)c1 (stereo not given)", "melting point", "97 to 98 °C"),
    ("C=CCOc1ccc(C(=O)C#Cc2c[nH]c3ccccc23)c(O)c1", "melting point", "228 to 230 °C"),
    ("CCOC(=O)c1c(C(F)(F)F)nc(C(F)F)c(C(=O)OC)c1OC(C)C", "melting point", "29 to 31 °C"),
    ("CCOCC1OC(n2cnc3c(NCc4cccc(I)c4)nc(Cl)nc32)C(O)C1O (stereo not given)", "melting point", "80 to 82 °C"),
    ("CC(=O)c1ccc(-c2ccc(O)c(Br)c2)cc1", "melting point", "166 to 170 °C"),
]

Hey, can you go through the list below and give me melting point for every item?
1. CCC(=C(c1ccccc1)c1ccc(C2CC2C(=O)N(CC)CC)cc1)c1ccccc1 (stereo not given)
2. Nc1nc(NC2CCCCC2)nc(NC2CCCCC2)n1
3. O=C(O)Cc1c(C(=O)c2ccc(Cl)cc2)[nH]c2cc(C(F)(F)F)ccc12
4. COc1ccc(C=CC(=O)O)cc1-c1cc2c(cc1OCCCCCCO)C(C)(C)CCC2(C)C
5. CCOC(C#CC(=NC(c1ccccc1)(c1ccccc1)c1ccccc1)C(F)F)OCC

Result:
1: 42 to 44 °C; 2: 153 °C; 3: 155 to 160 °C; 4: 118 to 120 °C; 5: 173 to 175 °C

---

Field: melting point. Provide a value for each of the molecules that follow.

# molecule, property_measured, recorded_result
measured = [
    ("CN1CCN(C2(CN(C)C(=O)c3ccc(Cl)c(Cl)c3)CCCCC2)CC1", "melting point", "126 to 129 °C"),
]

Hey, can you go through the list below and give me melting point for every item?
1. COc1ccc(S(=O)(=O)C(C)(Cc2ccc(OCCCN3CCN(c4cccc(Cl)c4)CC3)cc2)C(=O)NO)cc1 (stereo not given)
2. O=C1Cc2cc(OCCN3CCC(Cc4ccc(F)cc4)CC3)ccc2N1
3. Cc1[nH]c(/C=C2\C(=O)Nc3cc(NC(=O)c4cccn(-c5ccc(F)cc5)c4=O)ccc32)c(C)c1CC(=O)O
4. CCc1cn(C(CC)C(=O)N(C)C)nc1-c1ccccc1 (stereo not given)
5. c1ccc(COC2CCN(Cc3c[nH]c4ccccc34)CC2)cc1
6. C[C@@H](O)c1nccc(N2CCN(c3cnc4ccccc4n3)CC2)n1
7. CCOC(=O)C1=C(C)NC(C(Nc2ccccc2C(=O)O)SCc2ccccc2)=C(C(=O)OCC)C1c1cccc([N+](=O)[O-])c1 (stereo not given)

Result:
1: 122 °C; 2: 149 to 150 °C; 3: > 300 °C; 4: 77.5 to 79 °C; 5: 143 to 145 °C; 6: 106 to 108 °C; 7: 105 to 107 °C

Hey, can you go through the list below and give me melting point for every item?
1. CC(=O)Nc1nc(-c2ccc(F)c3ccccc23)cc(C(C)C)n1
2. CCCCCCCCCCc1ccc(CO)cc1
3. CC(C)(C)C12OOC1(c1ccc(C(=O)N3CCOCC3)c(O)c1)OCC2(C)C (stereo not given)
4. CCOC(=O)COC1CCN(C(=O)[C@H](C)NC(=O)c2ccc(C(N)=NO)cc2)CC1

Result:
["115 to 117 °C", "39 to 40 °C", "114 to 116 °C", "212 to 213 °C"]

Hey, can you go through the list below and give me melting point for every item?
1. CN1Cc2cscc2Nc2ccccc21
2. CCOc1nc(C)nc(N)n1
3. CCOC(=O)c1ncn2c1[C@@H]1CCN1C(=O)c1sccc1-2
4. N#CCSC(=O)c1ccc(C#N)cc1

Result:
1. 110 to 112 °C
2. 172 to 174 °C
3. 188 to 191 °C
4. 132 to 134 °C

Hey, can you go through the list below and give me melting point for every item?
1. O=C(c1ccco1)N1CCc2cc(S(=O)(=O)n3cc(-c4ccccc4)[nH]c3=O)ccc21
2. NC(=S)c1cc2c(cn1)[nH]c1ccccc12
3. O=C(Nc1ccc2cc(CN3CCCC3)cnc2c1)c1ccc(-c2ccccc2)cc1
4. C=CCOc1ccc2c(C)c(C(=O)C=Cc3cc(OC)c(OC)c(OC)c3)c(=O)oc2c1

Result:
1: 256 to 257 °C; 2: 274 to 276 °C; 3: 192 to 194 °C; 4: 138 to 140 °C
